tested on: IgG from human donors (anti-AAV antibodies); assay: Screen for anti-AAV antibodies in human sera, 2452 linear 15-amino-acid AAV peptides on microarrays (Table 1); type: binding; design: key: X: the deduplicated aggregate of the respective top 10 peptide hits for each donor was compiled and designated as group I; conditions: membership in deduplicated aggregate of top 10 peptide hits for each donor; human donor IgG binding to linear 15-amino-acid AAV peptides on microarray, fluorescence
Outcome measure: group I

- DSESVPDPQPIGEP (REGION 1..14: note = peptide derived from viral capsid protein) [SEQ ID NO: 1942]: X
- PRDWQRLINNNWGF (REGION 1..14: note = peptide derived from viral capsid protein) [SEQ ID NO: 1960]: X
- YFGYSTPWGYFDFN (REGION 1..14: note = peptide derived from viral capsid protein) [SEQ ID NO: 1972]: X
- PEIQYTSNYNKSVN (REGION 1..14: note = peptide derived from viral capsid protein) [SEQ ID NO: 1921]: X
- DDEDKFFPMSGVMI (REGION 1..14: note = peptide derived from viral capsid protein) [SEQ ID NO: 1937]: X
- VMITDEEEIRTTNP (REGION 1..14: note = peptide derived from viral capsid protein) [SEQ ID NO: 1998]: X
- YDQQLKAGDNPYLK (REGION 1..14: note = peptide derived from viral capsid protein) [SEQ ID NO: 1924]: X
- FGKQGAGRDNVDYS [SEQ ID NO: 1915]: X
- PVDQSPQEPDSSSG [SEQ ID NO: 1991]: X
- LEDNLSEGIREWWD (REGION 1..14: note = peptide derived from viral capsid protein) [SEQ ID NO: 1898]: X
- DWLEDNLSEGIREW (REGION 1..14: note = peptide derived from viral capsid protein) [SEQ ID NO: 1943]: X
- DKAYDQQLKAGDNP (REGION 1..14: note = peptide derived from viral capsid protein) [SEQ ID NO: 1941]: X
- PGAPKPKANQQKQD [SEQ ID NO: 1958]: X
- EEEIRTTNPVATEQ (REGION 1..14: note = peptide derived from viral capsid protein) [SEQ ID NO: 1979]: X
- ADPPTTFSQAKLAS [SEQ ID NO: 1939]: X
- QQRLSKTANDNNNS [SEQ ID NO: 1993]: X
- EEIKTTNPVATEQY (REGION 1..14: note = peptide derived from viral capsid protein) [SEQ ID NO: 1945]: X
- KSVNVDFTVDTNGV (REGION 1..14: note = peptide derived from viral capsid protein) [SEQ ID NO: 1987]: X
- SKTANDNNNSNFPW (REGION 1..14: note = peptide derived from viral capsid protein) [SEQ ID NO: 1995]: X
- PPQILIKNTPVPAD [SEQ ID NO: 1959]: X
- FQERLQEDTSFGGN [SEQ ID NO: 1949]: X
- NPGVAMATHKDDEE [SEQ ID NO: 1957]: X
- SESVPDPQPLGEPP (REGION 1..14: note = peptide derived from viral capsid protein) [SEQ ID NO: 1922]: X
- ANNLTSTVQIFADS (REGION 1..14: note = peptide derived from viral capsid protein) [SEQ ID NO: 1895]: X
- LQQQNTAPQIGTVN (REGION 1..14: note = peptide derived from viral capsid protein) [SEQ ID NO: 1934]: X
- GTNTMATGSGAPMA (REGION 1..14: note = peptide derived from viral capsid protein) [SEQ ID NO: 1927]: X
- DKAYDRQLDSGDNP (REGION 1..14: note = peptide derived from viral capsid protein) [SEQ ID NO: 1926]: X
- TQGTQQLLFSQAGP [SEQ ID NO: 1974]: X
- PWGYFDFNRFHCHF (REGION 1..14: note = peptide derived from viral capsid protein) [SEQ ID NO: 1961]: X
- ESVPDPQPIGEPPA [SEQ ID NO: 1947]: X
